assay.target: T1, human Granzyme B (human, UniProt P10144 21-247)
T1 construct: Captured on a Series S Streptavidin chip for SPR; also called hGranzyme B; GzmB
T1 sequence (P10144 21-247 limits assumed): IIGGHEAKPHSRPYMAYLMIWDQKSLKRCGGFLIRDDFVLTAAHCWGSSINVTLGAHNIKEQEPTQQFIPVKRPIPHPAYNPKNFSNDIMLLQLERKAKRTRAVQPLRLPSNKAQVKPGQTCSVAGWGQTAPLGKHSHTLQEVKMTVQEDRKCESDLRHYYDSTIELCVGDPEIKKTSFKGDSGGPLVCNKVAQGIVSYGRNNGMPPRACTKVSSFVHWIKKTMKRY
experimental.details: SPR, Biacore 8k+, hGranzyme B captured on SA chip, single cycle kinetics, 1:1 model
pKd: −log10 of the molar value. Bridge positions count the residues as written; N and C are the ends.
Readings of pKd for the listed binders

binder	pKd
{CH2CO}-FNFEDQSADTWQPCGGK(RESCA‑1)-NH2 (thioether N-14) [Compound 3a]	7.82
{CH2CO}-FNFEDQSALTWQPCG-NH2 (thioether N-14; SMILES CC(C)C[C@@H]1NC(=O)[C@H](C)NC(=O)[C@H](CO)NC(=O)[C@H](CCC(N)=O)NC(=O)[C@H](CC(=O)O)NC(=O)[C@H](CCC(=O)O)NC(=O)[C@H](Cc2ccccc2)NC(=O)[C@H](CC(N)=O)NC(=O)[C@H](Cc2ccccc2)NC(=O)CSC[C@@H](C(=O)NCC(N)=O)NC(=O)[C@@H]2CCCN2C(=O)[C@H](CCC(N)=O)NC(=O)[C@H](Cc2c[nH]c3ccccc23)NC(=O)[C@H]([C@@H](C)O)NC1=O) [Compound 80a]	7.41
{CH2CO}-FNFEDQSAKTWQPCG-NH2 (thioether N-14; SMILES C[C@@H]1NC(=O)[C@H](CO)NC(=O)[C@H](CCC(N)=O)NC(=O)[C@H](CC(=O)O)NC(=O)[C@H](CCC(=O)O)NC(=O)[C@H](Cc2ccccc2)NC(=O)[C@H](CC(N)=O)NC(=O)[C@H](Cc2ccccc2)NC(=O)CSC[C@@H](C(=O)NCC(N)=O)NC(=O)[C@@H]2CCCN2C(=O)[C@H](CCC(N)=O)NC(=O)[C@H](Cc2c[nH]c3ccccc23)NC(=O)[C@H]([C@@H](C)O)NC(=O)[C@H](CCCCN)NC1=O) [Compound 34a]	7.53
{CH2CO}-FNFEDQSAWTWQPCG-NH2 (thioether N-14; SMILES C[C@@H]1NC(=O)[C@H](CO)NC(=O)[C@H](CCC(N)=O)NC(=O)[C@H](CC(=O)O)NC(=O)[C@H](CCC(=O)O)NC(=O)[C@H](Cc2ccccc2)NC(=O)[C@H](CC(N)=O)NC(=O)[C@H](Cc2ccccc2)NC(=O)CSC[C@@H](C(=O)NCC(N)=O)NC(=O)[C@@H]2CCCN2C(=O)[C@H](CCC(N)=O)NC(=O)[C@H](Cc2c[nH]c3ccccc23)NC(=O)[C@H]([C@@H](C)O)NC(=O)[C@H](Cc2c[nH]c3ccccc23)NC1=O) [Compound 35a]	7.62
{CH2CO}-FNFEDQSAVTWQPCG-NH2 (thioether N-14; SMILES CC(C)[C@@H]1NC(=O)[C@H](C)NC(=O)[C@H](CO)NC(=O)[C@H](CCC(N)=O)NC(=O)[C@H](CC(=O)O)NC(=O)[C@H](CCC(=O)O)NC(=O)[C@H](Cc2ccccc2)NC(=O)[C@H](CC(N)=O)NC(=O)[C@H](Cc2ccccc2)NC(=O)CSC[C@@H](C(=O)NCC(N)=O)NC(=O)[C@@H]2CCCN2C(=O)[C@H](CCC(N)=O)NC(=O)[C@H](Cc2c[nH]c3ccccc23)NC(=O)[C@H]([C@@H](C)O)NC1=O) [Compound 84a]	7.28
